# System: 186277-243-T-J2-PDC complex spheroid growth
# assay.info: Anticancer human tumor 186277-243-T-J2-PDC patient-derived colon adenocarcinoma cell line growth inhibition [AhR]
# settings: second compound 3.16 µM; first compound 0.316 µM; active compounds read low
# Text: Multicellular complex tumor spheroid response to aryl hydrocarbon receptor antagonists in combination with a variety of drugs and investigational agents in selected tumor cell lines […] Compounds. […] If the clinical Cmax for an agent had not been determined, the highest concentration tested was 10 microM (Table 1). […]
Readings of viability, T/C for the listed compounds
experimental.endpoint: viability, T/C (%)

{"columns": ["compound", "target.of.assay", "val"],
 "data": [
  ["Nc1ccn(C2OC(CO)C(O)C2(F)F)c(=O)n1 (stereo not drawn) + Cc1ccccc1N=Nc1ccc(NC(=O)c2ccnn2C)c(C)c1", "186277-243-T-J2-PDC complex spheroid growth", 15.7],
  ["CC1COCCN1c1cc(-c2ccnn2C)c2ccnc(-c3ccn[nH]3)c2n1 (stereo not drawn) + Cc1cncc(-c2nc(NCCc3c[nH]c4ccccc34)c3ncn(C(C)C)c3n2)c1", "186277-243-T-J2-PDC complex spheroid growth", 9.02],
  ["COc1cc(C2c3cc4c(cc3C(OC3OC5COC(C)OC5C(O)C3O)C3COC(=O)C23)OCO4)cc(OC)c1O (stereo not drawn) + Cc1cncc(-c2nc(NCCc3c[nH]c4ccccc34)c3ncn(C(C)C)c3n2)c1", "186277-243-T-J2-PDC complex spheroid growth", 89.3]
]}

* * *

# Tested on: 186277-243-T-J2-PDC complex spheroid growth
# assay.info: Anticancer human tumor 186277-243-T-J2-PDC cell line growth inhibition [AhR];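 note: luminescent signal used as a stand-in for viable cell amount; spheroids exposed to compounds for seven days before the viability read; 100% = DMSO vehicle control wells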
# settings: second compound 1 µM; first compound 0.316 µM; active compounds read low

{"columns": ["compound", "target.of.assay", "viability, T/C / %"],
 "data": [
  ["CC1(C)CCC(CN2CCN(c3ccc(C(=O)NS(=O)(=O)c4ccc(NCC5CCOCC5)c([N+](=O)[O-])c4)c(Oc4cnc5[nH]ccc5c4)c3)CC2)=C(c2ccc(Cl)cc2)C1 + Cc1ccccc1N=Nc1ccc(NC(=O)c2ccnn2C)c(C)c1", "186277-243-T-J2-PDC complex spheroid growth", 110],
  ["COc1cccc2c1C(=O)c1c(O)c3c(c(O)c1C2=O)CC(O)(C(=O)CO)CC3OC1CC(N)C(O)C(C)O1 (stereo not given) + CC(CO)NC(=O)c1cc(-c2ccc(Cl)cc2)nn(-c2cnn(C)c2)c1=O", "186277-243-T-J2-PDC complex spheroid growth", 8.06],
  ["Nc1ncn(C2CC(O)C(CO)O2)c(=O)n1 (stereo not given) + Cc1cncc(-c2nc(NCCc3c[nH]c4ccccc34)c3ncn(C(C)C)c3n2)c1", "186277-243-T-J2-PDC complex spheroid growth", 156],
  ["CC1COCCN1c1cc(-c2ccnn2C)c2ccnc(-c3ccn[nH]3)c2n1 (stereo not given) + Cc1cncc(-c2nc(NCCc3c[nH]c4ccccc34)c3ncn(C(C)C)c3n2)c1", "186277-243-T-J2-PDC complex spheroid growth", 7.76],
  ["O=C(c1cc(Cc2n[nH]c(=O)c3ccccc23)ccc1F)N1CCN(C(=O)C2CC2)CC1 + Cc1cncc(-c2nc(NCCc3c[nH]c4ccccc34)c3ncn(C(C)C)c3n2)c1", "186277-243-T-J2-PDC complex spheroid growth", 100]
]}

* * *

# System: 186277-243-T-J2-PDC complex spheroid growth
# assay.info: Anticancer human tumor 186277-243-T-J2-PDC cell line growth inhibition [AhR];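 note: luminescent signal used as a stand-in for viable cell amount; spheroids exposed to compounds for seven days before the viability read; 100% = DMSO vehicle control wells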
# settings: second compound 10 µM; first compound 0.03 µM; active compounds read low
Please note: viability, T/C exactly at 20% is N. Only values below 20% get Y.

{"columns": ["molecule", "target.of.assay", "class"],
 "data": [
  ["CC(C)CC(NC(=O)C(Cc1ccccc1)NC(=O)c1cnccn1)B(O)O (stereo unspecified) + Cc1cncc(-c2nc(NCCc3c[nH]c4ccccc34)c3ncn(C(C)C)c3n2)c1", "186277-243-T-J2-PDC complex spheroid growth", "Y"],
  ["CC(C)CC(NC(=O)C(Cc1ccccc1)NC(=O)c1cnccn1)B(O)O (stereo unspecified) + Cc1ccccc1N=Nc1ccc(NC(=O)c2ccnn2C)c(C)c1", "186277-243-T-J2-PDC complex spheroid growth", "Y"],
  ["Nc1ncn(C2CC(O)C(CO)S2)c(=O)n1 (stereo unspecified) + Cc1cncc(-c2nc(NCCc3c[nH]c4ccccc34)c3ncn(C(C)C)c3n2)c1", "186277-243-T-J2-PDC complex spheroid growth", "N"],
  ["O=C(C=Cn1cnc(-c2cc(C(F)(F)F)cc(C(F)(F)F)c2)n1)NNc1cnccn1 + Cc1cncc(-c2nc(NCCc3c[nH]c4ccccc34)c3ncn(C(C)C)c3n2)c1", "186277-243-T-J2-PDC complex spheroid growth", "N"],
  ["O=C(C=Cn1cnc(-c2cc(C(F)(F)F)cc(C(F)(F)F)c2)n1)NNc1cnccn1 + CC(CO)NC(=O)c1cc(-c2ccc(Cl)cc2)nn(-c2cnn(C)c2)c1=O", "186277-243-T-J2-PDC complex spheroid growth", "N"],
  ["CCc1c2c(nc3ccc(O)cc13)-c1cc3c(c(=O)n1C2)COC(=O)[C@]3(O)CC + Cc1cncc(-c2nc(NCCc3c[nH]c4ccccc34)c3ncn(C(C)C)c3n2)c1", "186277-243-T-J2-PDC complex spheroid growth", "Y"]
]}

* * *

Readings of viability, T/C for the listed molecules
# Test system: 186277-243-T-J2-PDC complex spheroid growth
# assay.info: Anticancer human tumor 186277-243-T-J2-PDC cell line growth inhibition [AhR];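 note: luminescent signal used as a stand-in for viable cell amount; spheroids exposed to compounds for seven days before the viability read; 100% = DMSO vehicle control wells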
# settings: second compound 1 µM; first compound 1 µM; active compounds read low
# Description: Multicellular complex tumor spheroid response to aryl hydrocarbon receptor antagonists in combination with a variety of drugs and investigational agents in selected tumor cell lines […] Compounds. […] If the clinical Cmax for an agent had not been determined, the highest concentration tested was 10 microM (Table 1). […]

{"columns": ["molecule", "viability, T/C, %"],
 "data": [
  ["Nc1ccccc1NC(=O)c1ccc(CNC(=O)OCc2cccnc2)cc1 + Cc1cncc(-c2nc(NCCc3c[nH]c4ccccc34)c3ncn(C(C)C)c3n2)c1", 111],
  ["COc1ccc([C@@H](O)c2cc(-c3ncnc4cc(N5CCOCC5)ccc34)c(F)cc2Cl)nn1 + CC(CO)NC(=O)c1cc(-c2ccc(Cl)cc2)nn(-c2cnn(C)c2)c1=O", 78.8],
  ["Nc1ccn(C2OC(CO)C(O)C2(F)F)c(=O)n1 (configuration not stated) + Cc1cncc(-c2nc(NCCc3c[nH]c4ccccc34)c3ncn(C(C)C)c3n2)c1", 8.54],
  ["CC1(C)CCC(CN2CCN(c3ccc(C(=O)NS(=O)(=O)c4ccc(NCC5CCOCC5)c([N+](=O)[O-])c4)c(Oc4cnc5[nH]ccc5c4)c3)CC2)=C(c2ccc(Cl)cc2)C1 + CC(CO)NC(=O)c1cc(-c2ccc(Cl)cc2)nn(-c2cnn(C)c2)c1=O", 95.8],
  ["CC1COCCN1c1cc(-c2ccnn2C)c2ccnc(-c3ccn[nH]3)c2n1 (configuration not stated) + Cc1cncc(-c2nc(NCCc3c[nH]c4ccccc34)c3ncn(C(C)C)c3n2)c1", 5.82],
  ["CC(C)c1c(-c2ccccc2)nc2c(C#N)c[nH]n2c1=O + CC(CO)NC(=O)c1cc(-c2ccc(Cl)cc2)nn(-c2cnn(C)c2)c1=O", 104],
  ["CC(C)c1c(-c2ccccc2)nc2c(C#N)c[nH]n2c1=O + Cc1ccccc1N=Nc1ccc(NC(=O)c2ccnn2C)c(C)c1", 96.4],
  ["O=C(C=Cc1cccc(S(=O)(=O)Nc2ccccc2)c1)NO + CC(CO)NC(=O)c1cc(-c2ccc(Cl)cc2)nn(-c2cnn(C)c2)c1=O", 10.7],
  ["CC1COCCN1c1cc(C2(S(C)(=N)=O)CC2)nc(-c2ccnc3[nH]ccc23)n1 (configuration not stated) + Cc1ccccc1N=Nc1ccc(NC(=O)c2ccnn2C)c(C)c1", 84.2],
  ["COc1cccc2c1C(=O)c1c(O)c3c(c(O)c1C2=O)CC(O)(C(=O)CO)CC3OC1CC(N)C(O)C(C)O1 (configuration not stated) + CC(CO)NC(=O)c1cc(-c2ccc(Cl)cc2)nn(-c2cnn(C)c2)c1=O", 0.09],
  ["O=C(c1cc(Cc2n[nH]c(=O)c3ccccc23)ccc1F)N1CCN(C(=O)C2CC2)CC1 + Cc1ccccc1N=Nc1ccc(NC(=O)c2ccnn2C)c(C)c1", 95.1],
  ["O=C(c1cc(Cc2n[nH]c(=O)c3ccccc23)ccc1F)N1CCN(C(=O)C2CC2)CC1 + CC(CO)NC(=O)c1cc(-c2ccc(Cl)cc2)nn(-c2cnn(C)c2)c1=O", 93.7]
]}

* * *

# Tested on: 186277-243-T-J2-PDC complex spheroid growth
# assay.info: Anticancer human tumor 186277-243-T-J2-PDC cell line growth inhibition [AhR]; active = viability on the fitted dose curve at most 10% of control; inactive = the rest;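 note: luminescent signal used as a stand-in for viable cell amount; spheroids exposed to compounds for seven days before the viability read; 100% = DMSO vehicle control wells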
# settings: second compound 0.1 µM; first compound 0.3 µM
Labels: active, inactive

{"columns": ["molecule", "class"],
 "data": [
  ["O=C(C=Cn1cnc(-c2cc(C(F)(F)F)cc(C(F)(F)F)c2)n1)NNc1cnccn1 + Cc1ccccc1N=Nc1ccc(NC(=O)c2ccnn2C)c(C)c1", "inactive"],
  ["CCN(c1cc(-c2ccc(CN3CCOCC3)cc2)cc(C(=O)NCc2c(C)cc(C)[nH]c2=O)c1C)C1CCOCC1 + CC(CO)NC(=O)c1cc(-c2ccc(Cl)cc2)nn(-c2cnn(C)c2)c1=O", "inactive"],
  ["CC(C)CC(NC(=O)C(Cc1ccccc1)NC(=O)c1cnccn1)B(O)O (centres undefined) + CC(CO)NC(=O)c1cc(-c2ccc(Cl)cc2)nn(-c2cnn(C)c2)c1=O", "active"],
  ["Nc1ncn(C2CC(O)C(CO)S2)c(=O)n1 (centres undefined) + CC(CO)NC(=O)c1cc(-c2ccc(Cl)cc2)nn(-c2cnn(C)c2)c1=O", "inactive"],
  ["CC(C)CC(NC(=O)C(Cc1ccccc1)NC(=O)c1cnccn1)B(O)O (centres undefined) + Cc1cncc(-c2nc(NCCc3c[nH]c4ccccc34)c3ncn(C(C)C)c3n2)c1", "active"],
  ["O=C(C=Cn1cnc(-c2cc(C(F)(F)F)cc(C(F)(F)F)c2)n1)NNc1cnccn1 + Cc1cncc(-c2nc(NCCc3c[nH]c4ccccc34)c3ncn(C(C)C)c3n2)c1", "inactive"],
  ["CCc1c2c(nc3ccc(O)cc13)-c1cc3c(c(=O)n1C2)COC(=O)[C@]3(O)CC + Cc1cncc(-c2nc(NCCc3c[nH]c4ccccc34)c3ncn(C(C)C)c3n2)c1", "inactive"],
  ["Nc1ncn(C2CC(O)C(CO)S2)c(=O)n1 (centres undefined) + Cc1cncc(-c2nc(NCCc3c[nH]c4ccccc34)c3ncn(C(C)C)c3n2)c1", "inactive"],
  ["CCc1c2c(nc3ccc(O)cc13)-c1cc3c(c(=O)n1C2)COC(=O)[C@]3(O)CC + Cc1ccccc1N=Nc1ccc(NC(=O)c2ccnn2C)c(C)c1", "inactive"]
]}
